Below, each entry is listed with its recorded Antitumor Activity (T/C, prolongation rate of survival day).
Test system: L1210 leukemia
PROCEDURE SUMMARY: Antitumor activity in BDF1 mice inoculated with L1210 leukemia cells (Table 6)
Format: in vivo
CONDITION LABEL: 0.3 mg./kg./day i.p., once daily for 10 days
Supply the numeric figure in %, leaving out any unit text.

{"COMPOUND": "COc1cccc2c1C(=O)c1c(O)c3c(c(O)c1C2=O)C[C@@](O)(C(=O)COC1CCCCO1)C[C@@H]3O[C@H]1C[C@H](N)[C@H](O)[C@H](C)O1 (stereo partly drawn) [Example 14-O-PA, 14-O-tetrahydropyranyl adriamycin]", "MEASURED TARGET": "L1210 leukemia", "VALUE REPORTED": 110}
{"COMPOUND": "COc1cccc2c1C(=O)c1c(O)c3c(c(O)c1C2=O)C[C@@](O)(C(=O)COC1CCCCO1)C[C@@H]3O[C@H]1C[C@H](N)[C@H](OC2CCCCO2)[C@H](C)O1 (single isomer, unassigned; isomer a) [4',14-di-O-PAa]", "MEASURED TARGET": "L1210 leukemia", "VALUE REPORTED": 103}
{"COMPOUND": "COc1cccc2c1C(=O)c1c(O)c3c(c(O)c1C2=O)C[C@@](O)(C(=O)COC1CCCCO1)C[C@@H]3O[C@H]1C[C@H](N)[C@H](OC2CCCCO2)[C@H](C)O1 (single isomer, unassigned; isomer b) [4',14-di-O-PAb]", "MEASURED TARGET": "L1210 leukemia", "VALUE REPORTED": 96}
{"COMPOUND": "COc1cccc2c1C(=O)c1c(O)c3c(c(O)c1C2=O)C[C@@](O)(C(=O)CO)C[C@@H]3O[C@H]1C[C@H](N)[C@H](O)[C@H](C)O1 [Adriamycin, adriamycin, reference compound]", "MEASURED TARGET": "L1210 leukemia", "VALUE REPORTED": 165}
{"COMPOUND": "COc1cccc2c1C(=O)c1c(O)c3c(c(O)c1C2=O)C[C@@](O)(C(C)=O)C[C@@H]3O[C@H]1C[C@H](N)[C@H](OC2CCCCO2)[C@H](C)O1 (single isomer, unassigned; isomer b) [4'-O-PDb]", "MEASURED TARGET": "L1210 leukemia", "VALUE REPORTED": 103}

Attention now turns to another entry.
Identify the reported Antitumor Activity (T/C, prolongation rate of survival day) for the following entry. COc1cccc2c1C(=O)c1c(O)c3c(c(O)c1C2=O)C[C@@](O)(C(=O)CO)C[C@@H]3O[C@H]1C[C@H](N)[C@H](OC2CCCCO2)[C@H](C)O1 (single isomer, unassigned; isomer a) [4'-O-PAa]
120

Source of measurements: patent US4303785A
